Biological target: rNPFF2 (Rattus norvegicus, UniProt Q9EQD2)
Sequence (Q9EQD2 whole entry): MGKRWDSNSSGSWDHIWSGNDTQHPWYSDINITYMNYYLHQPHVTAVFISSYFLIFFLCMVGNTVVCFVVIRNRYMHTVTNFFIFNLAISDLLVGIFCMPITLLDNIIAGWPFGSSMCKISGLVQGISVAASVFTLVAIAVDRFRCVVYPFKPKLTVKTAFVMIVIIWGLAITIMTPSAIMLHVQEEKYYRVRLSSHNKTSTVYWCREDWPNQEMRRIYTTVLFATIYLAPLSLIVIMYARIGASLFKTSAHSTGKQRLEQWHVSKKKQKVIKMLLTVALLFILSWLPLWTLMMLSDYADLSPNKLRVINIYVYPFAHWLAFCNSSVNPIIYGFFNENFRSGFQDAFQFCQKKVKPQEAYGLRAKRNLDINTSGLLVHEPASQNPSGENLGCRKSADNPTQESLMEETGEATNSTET
Assay: Binding affinity at cloned recombinant rat NPFF2 receptor
pKi: −log10 of the molar value.
Class YES: pKi at least 6. Class NO: pKi below 6.

Here are 3 molecules together with their reported answers.
Molecule	Class Name
Cc1cc2nc(NC(=N)N)nc(C)c2cc1O	NO
Cc1nc(NC(=N)N)nc2ccccc12	NO
Cc1ccc2c(C)cc(NC(=N)N)nc2c1	YES

Qu. Can "Cc1ccc2nc(NC(=N)N)cc(C)c2c1" be said to have pKi at or above 6?
Ans. YES

Qu. Can "CCc1ccc2c(C)nc(NC(=N)N)nc2c1" be said to have pKi at or above 6?
Ans. YES

Qu. Can "Cc1nc(NC(=N)N)nc2cc(Br)ccc12" be said to have pKi at or above 6?
Ans. NO

Qu. Can "Cc1nc(NC(=N)N)nc2cc(C(C)(C)C)ccc12" be said to have pKi at or above 6?
Ans. YES

---

The reader will find reported pEC50 values listed item by item below.
Target: rNPFF2 (Rattus norvegicus, UniProt Q9EQD2)
Experiment: Functional assay (agonist potency, intrinsic activity) at cloned rat NPFF2 receptor
Conditions: recombinant rat NPFF2
The value called pEC50 is obtained by taking minus log10 of the concentration in mol/L.

Molecule	Experimental Result
CCCCCCCCc1ccc2nc(NC(=N)N)nc(C)c2c1	5.25
Cc1nc(NC(=N)N)nc2ccc(OCc3ccccc3)cc12	6.12
Cc1nc(NC(=N)N)nc2cc(Br)ccc12	5.61
Cc1cc(NC(=N)N)nc2ccc(Cl)cc12	6.41
Cc1ccc2nc(NC(=N)N)nc(C)c2c1	5.25

Qu. Give reported pEC50 for "Cc1ccc2c(C)cc(NC(=N)N)nc2c1" (rNPFF2 (Rattus norvegicus, UniProt Q9EQD2))
Ans. 6.57

---

The reader will find reported EC50 values listed item by item below.
Molecular target: rNPFF1 (Rattus norvegicus, UniProt Q9EP86)
Sequence (Q9EP86 whole entry): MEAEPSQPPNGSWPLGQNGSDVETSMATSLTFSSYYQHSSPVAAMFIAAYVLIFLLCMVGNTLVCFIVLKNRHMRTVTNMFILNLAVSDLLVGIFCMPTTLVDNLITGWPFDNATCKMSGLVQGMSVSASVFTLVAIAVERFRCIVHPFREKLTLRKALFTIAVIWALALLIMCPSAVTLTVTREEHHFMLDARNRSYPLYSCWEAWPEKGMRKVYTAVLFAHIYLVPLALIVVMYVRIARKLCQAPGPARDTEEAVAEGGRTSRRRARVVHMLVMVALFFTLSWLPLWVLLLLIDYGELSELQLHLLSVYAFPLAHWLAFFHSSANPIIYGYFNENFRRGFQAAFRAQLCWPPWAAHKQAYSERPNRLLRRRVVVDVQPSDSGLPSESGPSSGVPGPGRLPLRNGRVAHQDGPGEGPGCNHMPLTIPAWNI
Experiment: Functional assay (agonist potency, intrinsic activity) at cloned rat NPFF1 receptor
Conditions: recombinant rat NPFF1

Check out these entries, answers already filled in.
Compound	Measured Target	Endpoint Label	Experimental Result
CCCCOc1ccc2nc(NC(=N)N)nc(C)c2c1 [Compound 1012]	rNPFF1 (Rattus norvegicus, UniProt Q9EP86)	EC50	> 10 µM
Cc1nc(NC(=N)N)nc2ccc(Cc3ccccc3)cc12 [Compound 2003]	rNPFF1 (Rattus norvegicus, UniProt Q9EP86)	EC50	0.171 µM
Cc1cc(NC(=N)N)nc2ccc3ccccc3c12 [Compound 4009]	rNPFF1 (Rattus norvegicus, UniProt Q9EP86)	EC50	> 10 µM
CCc1ccc2nc(NC(=N)N)nc(C)c2c1 [Compound 1003]	rNPFF1 (Rattus norvegicus, UniProt Q9EP86)	EC50	> 10 µM

Qu. Give reported EC50 for Cc1cc(NC(=N)N)nc2ccccc12 [Compound 6001, N-(4-methyl-2-quinolinyl)guanidine] (rNPFF1 (Rattus norvegicus, UniProt Q9EP86))
Ans. > 10 µM

---

Target: rNPFF1 (Rattus norvegicus, UniProt Q9EP86)
Construct: expressed in transfected cells
Experiment: Functional assay (agonist potency, intrinsic activity) at cloned rat NPFF1 receptor
Type: cell-based
Conditions: percent of maximum response elicited by neuropeptide FF; rat NPFF1
Endpoint Label: rNPFF1 IA (intrinsic activity)

Check out these entries, answers already filled in.
Molecule	rNPFF1 IA (intrinsic activity)
Cc1cc(NC(=N)N)nc2c(C)cccc12	Inactive
Cc1nc(NC(=N)N)nc2ccc(OCc3ccccc3)cc12	Inactive
CCC(C)c1ccc2nc(NC(=N)N)nc(C)c2c1 (stereo not shown)	51% NPFF
Cc1nc(NC(=N)N)nc2ccc(Oc3ccccc3)cc12	31% NPFF
CCCCc1ccc2nc(NC(=N)N)nc(C)c2c1	40% NPFF
CCCCc1ccc2nc(NC(=N)N)cc(C)c2c1	28% NPFF
Cc1nc(NC(=N)N)nc2ccc(C(C)(C)C)cc12	36% NPFF
Cc1nc(NC(=N)N)nc2cc(OC(C)C)ccc12	Inactive
CCCCOc1ccc2nc(NC(=N)N)nc(C)c2c1	Inactive
Cc1nc(NC(=N)N)nc2cc3c(cc12)C=CCC3	Inactive

Qu. Specify rNPFF1 IA (intrinsic activity) for "CCc1ccc2c(C)nc(NC(=N)N)nc2c1" and stop.
Ans. Inactive

Qu. Specify rNPFF1 IA (intrinsic activity) for "Cc1nc(NC(=N)N)nc2ccc(Br)cc12" and stop.
Ans. Inactive
